# Assay info: Toxicity liver stage against HepG2, at 10uM
# Type: cell-based
# Design: test concentration 10 uM, cell line HepG2-A16-CD81EGFP
# Study conditions: human, HepG2-A16-CD81EGFP cells; read-out: INHIBITION
For each record, write down the corresponding cytotoxicity at 10 µM.
Report as a plain number; the unit % is understood.

Return cytotoxicity at 10 µM (reported value) for this molecule: N#Cc1cccc(S(=O)(=O)N2CCCCC2CCN2CCCC2=O)c1 (configuration not stated)
-16.9

Return cytotoxicity at 10 µM (reported value) for this molecule: `O=C(NCc1cccnc1)c1nc2c(s1)CCCN2C(=O)C1CC1`
-93

Return cytotoxicity at 10 µM (reported value) for this molecule: O=C(C1CC1)N1CCC2(COCc3cnc(N4CCOCC4)nc32)C1 (configuration not stated)
5.31

Return cytotoxicity at 10 µM (reported value) for this molecule: CC(CN1CCOCC1)OC(=O)c1ccccc1I (configuration not stated)
-6.37

Return cytotoxicity at 10 µM (reported value) for this molecule: `O=C(CCc1cc2n(n1)CCCN(CCc1ccccc1)C2)NC1CC1`
12

Return cytotoxicity at 10 µM (reported value) for this molecule: `CN1CCCN(C(=O)c2nc3c(o2)CN(S(C)(=O)=O)C3)CC1`
-117

Return cytotoxicity at 10 µM (reported value) for this molecule: `CCS(=O)(=O)c1ccc2oc([C@H]3CCN(CC4CCCCC4)C3)nc2c1`
41

Return cytotoxicity at 10 µM (reported value) for this molecule: `COc1ccccc1CC1CCN(C(=O)CCc2ccccn2)CC1`
-3.2

Return cytotoxicity at 10 µM (reported value) for this molecule: CCc1nccn1-c1cccc(C2CCCN(C3CCCCC3)C2)n1 (configuration not stated)
-5.08

Return cytotoxicity at 10 µM (reported value) for this molecule: CCN(C)S(=O)(=O)NCC1CCN(Cc2ccccc2F)C1 (configuration not stated)
-2.48

Return cytotoxicity at 10 µM (reported value) for this molecule: Cc1cc(N(C)C)cc(C2CCN(S(=O)(=O)c3cccnc3)C2)n1 (configuration not stated)
4.26

Return cytotoxicity at 10 µM (reported value) for this molecule: `Cc1nc(C(=O)N(C)[C@@H]2CCC[C@@H](Oc3ccccc3)[C@@H]2O)co1`
-22.6

Return cytotoxicity at 10 µM (reported value) for this molecule: O=C(c1cnccn1)N1CCCC2(CCN(Cc3cccnc3)C2)C1 (configuration not stated)
-129

Return cytotoxicity at 10 µM (reported value) for this molecule: `CCNC(=O)CNS(=O)(=O)c1cc(Br)ccc1F`
-55.4

Return cytotoxicity at 10 µM (reported value) for this molecule: Cc1cc(C(F)(F)F)nn1C(C)C(=O)Nc1ccncc1 (configuration not stated)
3.1

Return cytotoxicity at 10 µM (reported value) for this molecule: N#Cc1cccc(OCCN2CCNC(=O)C2c2cccs2)c1 (configuration not stated)
6.76

Return cytotoxicity at 10 µM (reported value) for this molecule: O=C1CC(c2ccc(C(F)(F)F)cc2)c2c(n3ccsc3nc2=O)N1 (configuration not stated)
-1.4

Return cytotoxicity at 10 µM (reported value) for this molecule: `OCCOc1ccc(NCc2cccc3cn[nH]c23)cn1`
-4.13

Return cytotoxicity at 10 µM (reported value) for this molecule: `COc1ccc(OC2CCN(C(=O)CCc3nc(Cl)n[nH]3)CC2)cc1`
4.47

Return cytotoxicity at 10 µM (reported value) for this molecule: O=C1NCC(C(=O)N(Cc2ccc(C(F)(F)F)cc2)C2CC2)N1 (configuration not stated)
4.54

Return cytotoxicity at 10 µM (reported value) for this molecule: O=C(O)C1c2nc[nH]c2CCN1CC(c1ccccc1)c1ccccc1 (configuration not stated)
-7.97

Return cytotoxicity at 10 µM (reported value) for this molecule: CCn1cc(CNC(C)c2noc(-c3ccc(Cl)cc3)n2)cn1 (configuration not stated)
3.63

Return cytotoxicity at 10 µM (reported value) for this molecule: Cc1nnc(CN(C)CC2CCCN2c2cccnn2)o1 (configuration not stated)
-0.514

Return cytotoxicity at 10 µM (reported value) for this molecule: CC(=O)NCC1(COc2cnccn2)C[C@@H](O)[C@@H](O)C1 (some centres not stated)
1.47

Return cytotoxicity at 10 µM (reported value) for this molecule: Cc1cc(NC(=O)NCC(O)COc2ccccc2)n(C)n1 (configuration not stated)
-3.19

Return cytotoxicity at 10 µM (reported value) for this molecule: `Cc1ccnc(OC[C@@]23CCO[C@@H]2CCN(c2ncc(F)cn2)C3)n1`
10.9

Return cytotoxicity at 10 µM (reported value) for this molecule: `CC(C)Nc1ccnc(-c2ccnc3c2ccn3C)n1`
-5.2

Return cytotoxicity at 10 µM (reported value) for this molecule: `N#Cc1ccc(NCc2cccc(COC3CCOCC3)c2)nc1`
32.4

Return cytotoxicity at 10 µM (reported value) for this molecule: `O=c1n(CCNCc2ccc3ccccc3c2)nc2ccccn12`
18.6

Return cytotoxicity at 10 µM (reported value) for this molecule: COc1ccccc1CN1CC(OC)CN(C(=O)CC(C)C)CC1=O (configuration not stated)
-3.3

Return cytotoxicity at 10 µM (reported value) for this molecule: `C/N=C1/c2cc3cc(OC)ccc3n2CCN1C`
3.34

Return cytotoxicity at 10 µM (reported value) for this molecule: `CC(C)CNC(=O)c1nn(C)c(NC(=O)Cc2ccccc2)c1F`
-3.22

Return cytotoxicity at 10 µM (reported value) for this molecule: COCC1COCCC12CCN(C(=O)CCc1ccccc1C)CC2 (configuration not stated)
-1.52

Return cytotoxicity at 10 µM (reported value) for this molecule: `CN(C)C(=O)CN1CCN(C(=O)Cc2csc(-c3ncccn3)n2)CC1`
-8.52

Return cytotoxicity at 10 µM (reported value) for this molecule: `Cn1cccc1C(=O)N1CCN(Cc2cccnc2)c2ncccc2C1`
10.9

Return cytotoxicity at 10 µM (reported value) for this molecule: `O=C(CCc1cscn1)N1CCC(C(=O)O)(c2ccccc2)CC1`
-5.36

Return cytotoxicity at 10 µM (reported value) for this molecule: COCCn1cc2c(n1)C(CNCc1ccco1)OCC2 (configuration not stated)
-11.9

Return cytotoxicity at 10 µM (reported value) for this molecule: CCOCC1CN(C(=O)c2ccco2)Cc2cnn(CC)c21 (configuration not stated)
-69

Return cytotoxicity at 10 µM (reported value) for this molecule: `CC(C)(C)n1ncc2c(=O)[nH]c(N3CCN(CC(F)F)CC3)nc21`
-7.8

Return cytotoxicity at 10 µM (reported value) for this molecule: `Cc1ccc(OCC(=O)NC2CCN(S(C)(=O)=O)CC2)cc1`
-0.0552

Return cytotoxicity at 10 µM (reported value) for this molecule: `CCCNC(=O)c1cc(-c2ccn(C(C)C)n2)n2ccccc12`
1.92

Return cytotoxicity at 10 µM (reported value) for this molecule: Cc1cnn(CC2CCCCN2CC(=O)Nc2c(C)n[nH]c2C)c1 (configuration not stated)
1.8

Return cytotoxicity at 10 µM (reported value) for this molecule: CCn1cc(-c2c(C)c(C3CCOC(C)(C)C3)nc(N)c2C#N)cn1 (configuration not stated)
-10.3

Return cytotoxicity at 10 µM (reported value) for this molecule: `CCN1CCN(c2ccc(C(=O)NCCn3ccnc3)cc2F)CC1`
10.8

Return cytotoxicity at 10 µM (reported value) for this molecule: `Cc1c(CNCCCOc2cccnc2)c2ccccc2n1CC(N)=O`
-145

Return cytotoxicity at 10 µM (reported value) for this molecule: `CN1CCN(Cc2cn3c(n2)CN(C(=O)c2cccn2C)CC3)CC1`
2.89

Return cytotoxicity at 10 µM (reported value) for this molecule: `COc1cc(CN(C)C(=O)NCC(=O)NC(C)C)ccc1SC`
-15.5

====

# Assay info: Toxicity liver stage against HepG2, at 10uM
# Format: cell-based
# Parameters: test concentration 10 uM, cell line HepG2-A16-CD81EGFP
# Study conditions: human, HepG2-A16-CD81EGFP cells; read-out: INHIBITION
For each record, write down the corresponding cytotoxicity at 10 µM.
Report as a plain number; the unit % is understood.

Return cytotoxicity at 10 µM (reported value) for this compound: `COCc1cncc2c1CCN(C(=O)c1cccc(C#N)c1)C2`
-98.2

Return cytotoxicity at 10 µM (reported value) for this compound: `CN(Cc1ccc2c(c1)OCO2)Cc1nc(-c2ccco2)no1`
-1.64

Return cytotoxicity at 10 µM (reported value) for this compound: `Cc1cccc(CN2CC3(CCN(C(=O)N(C)C)CC3)OCC2=O)n1`
-3.88

Return cytotoxicity at 10 µM (reported value) for this compound: Cc1ccc(-c2noc(CN3CCCC(Cn4cncn4)C3)n2)cc1 (configuration not stated)
-7.12

Return cytotoxicity at 10 µM (reported value) for this compound: CSCc1cccc(C(=O)N2CCN(CC(C)O)CC2)c1 (configuration not stated)
-5.31

Return cytotoxicity at 10 µM (reported value) for this compound: `CCn1nc(C)c(NC(=O)c2nnn(Cc3ccccc3)c2OC)c1C`
13.9

Return cytotoxicity at 10 µM (reported value) for this compound: CC(C)(C)n1ncc2c1NC(=O)CC2c1cccc(F)c1 (configuration not stated)
-8.81

Return cytotoxicity at 10 µM (reported value) for this compound: `CSc1cccc(CN(C)C(=O)CN2CCN(c3ncccn3)CC2)c1`
4.64

Return cytotoxicity at 10 µM (reported value) for this compound: `FC(F)CNc1cnc(C2CCNCC2)cn1`
0.83

Return cytotoxicity at 10 µM (reported value) for this compound: `CCN(C(C)=O)c1nc(CN2CCN(c3nccs3)CC2)cs1`
-6.01

Return cytotoxicity at 10 µM (reported value) for this compound: `Cn1nc(CNC(=O)C2CCCC2)cc1C1CC1`
-0.265

Return cytotoxicity at 10 µM (reported value) for this compound: `N#Cc1ccc(N2CCC(NS(=O)(=O)c3cccs3)CC2)c(F)c1`
20.5
